Each entry below carries its recorded Kd.
Biological target: human TGFßRII (antigen of the Octet experiments) (human, UniProt P37173 23-166)
Sequence (P37173 23-166): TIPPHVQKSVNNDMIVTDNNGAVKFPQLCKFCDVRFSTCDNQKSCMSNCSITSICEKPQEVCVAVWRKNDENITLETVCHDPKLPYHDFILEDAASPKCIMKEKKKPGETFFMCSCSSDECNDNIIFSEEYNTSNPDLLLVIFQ
Assay: BLI (Octet)
Kindly answer with a numeric value in nM, unit omitted.

Query string: // lookup Kd for H1.105 L1 XENP34561 (antibody, V domains shown) VH: QLQVQESGPGLVKPSETLSLTCTVSGGSISNSYFSWGWIRQPPGKGLEWIGSFYYGEKTYYNPSLKSRATISIDTSKSQFSLKLSSVTAADTAVYYCPRGPTMIRGVIDYWGQGTLVTVSS VL: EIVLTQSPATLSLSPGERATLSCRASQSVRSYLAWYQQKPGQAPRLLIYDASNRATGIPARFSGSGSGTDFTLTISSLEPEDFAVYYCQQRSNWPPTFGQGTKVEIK
Result string: 0.455

Query string: Endpoint output: Kd of H1 L1.7 XENP34570 (antibody, V domains shown) VH: QLQVQESGPGLVKPSETLSLTCTVSGGSISNSYFSWGWIRQPPGKGLEWIGSFYYGEKTYYNPSLKSRATISIDTSKSQFSLKLSSVTAADTAVYYCPRGPTMIRGVIDSWGQGTLVTVSS VL: EIVLTQSPATLSLSPGERATLSCRASQGVRSYLAWYQQKPGQAPRLLIYDASNRATGIPARFSGSGSGTDFTLTISSLEPEDFAVYYCQQRSNWPPTFGQGTKVEIK . Value?
Result string: 0.315

Query string: What does the data say about its Kd? Entry: H1.85 L1 XENP34541 (antibody, V domains shown) VH: QLQVQESGPGLVKPSETLSLTCTVSGGSISNSYFSWGWIRQPPGKGLEWIGSFYYGEKTYYNPSLKSRATISIDTSKSQFSLKLSSVTAADTAVYYCPRGPTSIRGVIDSWGQGTLVTVSS VL: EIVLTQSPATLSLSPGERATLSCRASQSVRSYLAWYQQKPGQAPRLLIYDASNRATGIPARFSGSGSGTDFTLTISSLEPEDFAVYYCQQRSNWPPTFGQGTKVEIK
Result string: 4

Where do these numbers come from? They come from patent US20220144956A1.
